Give measured inhibition for each item. Keep answers brief.
Target system: Acetylcholinesterase (Electrophorus electricus)
Condition description: at 2 mg/mL
Description: Inhibition of electric eel AChE at 2 mg/ml by Ellman's method

Noted for COc1c2c3c4c(c(OC)c(=O)c5c(O)cc(OC)c(c6c(OC)cc(O)c(c1=O)c63)c54)[C@@H](C(C)=O)[C@@](C)(O)C2 (relative stereo) : its inhibition reads 5.56%

Entry COc1c2ccoc2cc2oc(C)cc(=O)c12 ; inhibition = 7%

// field: inhibition; key: O=c1c(O)c(-c2ccc(O)c(O)c2)oc2cc(O)ccc12 ; value = 27.5%

Data point: CO[C@H]1C[C@H](O[C@H]2[C@H](C)[C@@H](O[C@@H]3O[C@H](C)C[C@H](N(C)C)[C@H]3OC(C)=O)[C@@H](C)C[C@@]3(CO3)C(=O)[C@H](C)[C@@H](OC(C)=O)[C@@H](C)[C@@H](C)OC(=O)[C@@H]2C)O[C@@H](C)[C@@H]1OC(C)=O ; inhibition = 14.8%

# inhibition of CC(C)=CCCC1=CC(=O)c2c(O)ccc(O)c2C1=O = 1.52%

Recorded result, CC1(C)CCC[C@](C)([C@H]2CC[C@]3(C)[C@@H]2[C@H](O)C[C@@H]2[C@@]4(C)CC[C@H](O)C(C)(C)[C@@H]4[C@@H](O)C[C@]23C)O1 , inhibition: 6.16%

The compound listed as N[C@H]1CONC1=O shows inhibition equal to 1.18%

GET /value?item= CC(C)=CCC/C(C)=C/CC/C(C)=C/CC/C(C)=C/CC/C(C)=C/CC/C(C)=C/CC/C(C)=C/CC/C(C)=C/CC/C(C)=C/CO &field=inhibition returns -1.74%

inhibition in this record for CO[C@@H]1[C@H](OC(=O)/C=C/C=C/C=C/C=C/C(=O)O)CC[C@]2(CO2)[C@H]1[C@@]1(C)O[C@@H]1CC=C(C)C : -8.57%

// inhibition value for COc1ccc([C@@H]2CC(=O)c3c(O)cc(O[C@@H]4O[C@H](CO)[C@@H](O)[C@H](O)[C@H]4O[C@@H]4O[C@@H](C)[C@H](O)[C@@H](O)[C@H]4O)cc3O2)cc1O : 4.86%

Field inhibition (entry CCCCC[C@H](O)/C=C/[C@H]1[C@H](O)CC(=O)[C@@H]1CCCCCCC(=O)O ) reads 16.6%

Recorded result, Cl.Cl.c1ccc2c3c([nH]c2c1)[C@H]1[C@H]2CC[C@H]([C@@H]4CCCN[C@@H]42)N1CC3 , inhibition: 20.5%

The reported value for COc1ccc(-c2cc(=O)c3c(O)cc(O)cc3o2)cc1 in terms of inhibition is -1.38%

What the record says about CC(=O)O[C@@H]1CC[C@@]2(C)[C@H](C1)[C@H](OC(C)=O)C[C@@H]1[C@@H]2C[C@H]2[C@@H]3CN4C[C@H](C)CC[C@H]4[C@H](C)[C@H]3CC[C@@]12O : inhibition is 26.8%

Consider C[n+]1cccc(C(=O)[O-])c1 . Its measured inhibition is -1.47%

----------
Provide the recorded inhibition for the entries that follow.
Target system: Cholinesterase (Equus caballus) (UniProt P81908)
Sequence (P81908 whole entry): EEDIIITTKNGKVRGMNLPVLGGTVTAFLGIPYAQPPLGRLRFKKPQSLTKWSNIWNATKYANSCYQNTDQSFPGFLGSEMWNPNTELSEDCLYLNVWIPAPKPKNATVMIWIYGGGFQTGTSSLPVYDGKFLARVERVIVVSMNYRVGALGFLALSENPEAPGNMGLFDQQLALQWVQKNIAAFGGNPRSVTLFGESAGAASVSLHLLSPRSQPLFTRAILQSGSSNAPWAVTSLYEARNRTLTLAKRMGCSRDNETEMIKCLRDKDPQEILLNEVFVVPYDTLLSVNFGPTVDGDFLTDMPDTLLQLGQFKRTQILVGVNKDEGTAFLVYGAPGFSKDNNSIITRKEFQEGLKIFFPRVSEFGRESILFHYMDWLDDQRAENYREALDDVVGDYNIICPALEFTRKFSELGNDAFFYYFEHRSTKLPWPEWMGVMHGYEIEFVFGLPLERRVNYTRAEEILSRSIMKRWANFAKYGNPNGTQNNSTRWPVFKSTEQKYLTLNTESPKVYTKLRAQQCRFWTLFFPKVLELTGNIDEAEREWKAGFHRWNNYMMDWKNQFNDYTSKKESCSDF
Condition description: at 2 mg/mL
Description: Inhibition of horse BChE at 2 mg/ml by Ellman's method
Give the number; % is assumed, so skip it.

Lab book: inhibition of COc1ccc(C(=O)O[C@H]2CC[C@@]3(C)[C@@H]4CC[C@H]5[C@]6(O)C[C@H](O)[C@@]7(O)[C@@H](CN8C[C@@H](C)CC[C@H]8[C@@]7(C)O)[C@]6(O)C[C@@]53O[C@]24O)cc1OC noted as -4.13

Recorded inhibition (molecule Cc1nccc2c1[nH]c1cc(O)ccc12 ): 35.9

// recorded inhibition for c1coc(CNc2ncnc3[nH]cnc23)c1 : 3.13

The value of inhibition measured for the molecule C[N+]1(C)CCC[C@H]1C(=O)[O-] turned out to be -3.98

According to the records, this molecule CC(=O)O[C@H]1[C@H]2[C@@H](OC(=O)Cc3ccccc3)[C@@H](C)C[C@]2(OC(C)=O)C(=O)/C(C)=C/[C@@H]2[C@H](CC[C@@]13CO3)C2(C)C displays inhibition of -5.46

Measured inhibition of COc1cc2c(cc1O)CCN[C@H]2C : -4.77

inhibition reading for CC(C)CCNC(=O)[C@H](CC(C)C)NC(=O)[C@H]1O[C@@H]1C(=O)O : 10.6

Record CC1=C(O)C(=O)C=C2C1=CC=C1[C@@]2(C)CC[C@@]2(C)[C@@H]3C[C@](C)(C(=O)O)CC[C@]3(C)CC[C@]12C , field inhibition: 1.01

// O=c1c(O)c(-c2ccccc2O)oc2cc(O)cc(O)c12 : inhibition value = 1.68

inhibition in this record for CC(C)[C@H]1C(=O)O[C@@H]2CCN3CC=C(COC(=O)[C@](C)(O)[C@]1(C)O)[C@H]23 : 3.04

Form field inhibition, entry O=C1C[C@@H](c2ccc(O)cc2)Oc2cc(O)cc(O)c21 : 0.68

Record COc1cc(/C=C/C(=O)c2ccc(O)cc2O)ccc1O , field inhibition: -0.11

Lookup result for N#C[C@H](O[C@@H]1O[C@H](CO[C@@H]2O[C@H](CO)[C@@H](O)[C@H](O)[C@H]2O)[C@@H](O)[C@H](O)[C@H]1O)c1ccccc1 ; measured inhibition: 5.7

inhibition in this record for Cc1c2c(c(O)c3c(O)cccc13)C(=O)O[C@H]2[C@@H]1[C@H](O)C(=O)C(C(N)=O)=C(O)[C@H]1N(C)C : 7.3

Record C[C@@H]1O[C@@H](O[C@H]2C(Oc3cc(O)c4c(=O)c(O)c(-c5ccc(O)cc5)oc4c3)O[C@H](CO)[C@@H](O)[C@@H]2O)[C@H](O)[C@H](O)[C@H]1O (some centres undefined) . Reported inhibition: -4.78

For reference, reported inhibition for O=C(/C=C/c1ccc(O)cc1)CC(=O)/C=C/c1ccc(O)cc1 stands at 7.13

Field inhibition (entry CN1[C@@H]2CC[C@H]1C[C@H](O)C2 ) reads -9.24

Summary for this molecule, Oc1ccc(/C=C/c2cc(O)cc(O)c2)cc1 : inhibition is 36.8

The molecule COc1cc(=O)oc(/C=C/C=C/C=C/C(C)=C/[C@@]2(C)O[C@H](C)[C@](C)(O)[C@H]2O)c1C showed inhibition equal to 16.6

----------
Target system: Cholinesterase (Equus caballus) (UniProt P81908)
Condition description: at 2 mg/mL
Measured property: inhibition (%)
Report the figure in % without appending any unit label.

The compound CN1[C@@H]2CC[C@H]1C[C@@H](OC(=O)[C@H](CO)c1ccccc1)C2 showed inhibition equal to 3.5

What the record says about CC1=C(/C=C/C(C)=C/C=C/C(C)=C/C(=O)O)C(C)(C)CCC1 : inhibition is -0.7

Input C/C=C(/C)C(=O)O[C@H]1C(C)=C2[C@H]([C@@H]1OC(=O)CCCCCCC)[C@@](C)(OC(C)=O)C[C@H](OC(=O)CCC)[C@@]1(O)[C@H]2OC(=O)[C@@]1(C)O . Output inhibition: 0.82

Recorded inhibition (compound CN1CCc2cc(O)c(O)cc2C1Cc1cc(O)c(O)cc1Br (racemic) ): 13.4

inhibition reading for C/C=C1\CN2CC[C@]34C(=C(CC=O)[C@H]1C[C@H]23)Nc1ccccc14 : 12

// inhibition lookup, compound = C=C1O[C@@](CO)(n2cnc3c(N)ncnc32)[C@H](O)[C@@H]1O , result: -3.01

The compound listed as CC[C@@H](C(=O)[C@@H](C)[C@@H](O)[C@H](C)[C@@H]1O[C@@H]([C@@H](CC)C(=O)O)CC[C@@H]1C)[C@H]1O[C@]2(C=C[C@@H](O)[C@]3(CC[C@@](C)([C@H]4CC[C@](O)(CC)[C@H](C)O4)O3)O2)[C@H](C)C[C@@H]1C shows inhibition equal to 3.73

The reported value for c1ccc2c3c([nH]c2c1)CNCC3 in terms of inhibition is -5.97

For record COC(=O)[C@H]1[C@H]2C[C@H]3c4[nH]c5ccccc5c4CCN3C[C@H]2CC[C@@H]1O.Cl [RAUWOLSCINE HYDROCHLORIDE] the listed inhibition is 59.1

Notebook: C[N+]1([O-])[C@@H]2CC[C@H]1C[C@H](OC(=O)C(CO)c1ccccc1)C2 (stereo partly drawn) , inhibition read as -2.78

Recorded inhibition (compound OC[C@H]1O[C@@H](Oc2ccc(O)cc2)[C@H](O)[C@@H](O)[C@@H]1O ): 6.63

Record summary for CN1[C@@H](CC(=O)c2ccccc2)CCC[C@H]1C[C@H](O)c1ccccc1 : reported inhibition = 30.4

Per the records, this compound ( COc1cc([C@@H]2CC(=O)c3c(O)cc(O)cc3O2)ccc1O ) has inhibition equal to 3.1

Looking up C[N+](C)(C)CC(O)CC(=O)O (racemic) , I see its inhibition listed as -2.91

According to the records, this compound CCN1C[C@]2(COC)CC[C@H](OC)[C@]34C5C[C@@H]6[C@@H](OC)C[C@@]7(OCO[C@@]7(C13)[C@@H](O)C24)C5[C@H]6OC (stereo partly drawn) displays inhibition of -6.6

// recorded inhibition for CCCCC[C@H](O)CC(=O)CCc1ccc(O)c(OC)c1 : -2.06

The reported value for CNc1ccc2oc(C[C@H]3O[C@@]4(CC[C@H]3C)O[C@H]([C@H](C)C(=O)c3ccc[nH]3)[C@H](C)C[C@H]4C)nc2c1C(=O)O in terms of inhibition is -3.34

Measured inhibition, CCCCC1OC(=O)C2=CCCCC21 (stereo not drawn) : 4.12

// sample CC1=C2C(=O)[C@H]3[C@@H](CC=C4C[C@@H](O)CC[C@@]43C)[C@@H]2CC[C@]12O[C@@H]1C[C@H](C)CN[C@H]1[C@H]2C , its inhibition was 5.64

Recorded inhibition (compound Oc1cc(O)cc(/C=C/c2ccc(O)c(O)c2)c1 ): 2.21

For this compound ( CC(=O)OCC1=C[C@H]2[C@@H]3C(C)(C)[C@]3(OC(=O)Cc3ccccc3)C[C@@H](C)[C@]2(O)[C@@H]2C=C(C)C(=O)[C@@]2(O)C1 ), measured inhibition is 6.06

inhibition reported for this compound O=c1c(O)c(-c2ccc(O)cc2O)oc2cc(O)cc(O)c12 : -3.98

Looking up CCC1=C[C@@H]2CN3CCc4c([nH]c5ccccc45)[C@@](C(=O)OC)(C2)[C@@H]13 , I see its inhibition listed as 75.2

Just so you know, measured inhibition for CC[C@]1(O)C[C@@H]2CN(CCc3c([nH]c4ccccc34)[C@@](C(=O)OC)(c3cc4c(cc3OC)N(C)[C@H]3[C@@](O)(C(=O)OC)[C@H](OC(C)=O)[C@]5(CC)C=CCN6CC[C@]43[C@@H]65)C2)C1 came out at 0.36

GET /value?item= OC[C@@H]1CCCN2CCCC[C@H]12 &field=inhibition returns -7.44

inhibition recorded for this compound, O[C@H]1[C@H]2[C@H](O)CCCN2C[C@H]1O , is -2.04

Value of measured inhibition for the entry CO[C@H]1/C=C/O[C@@]2(C)Oc3c(C)c(O)c4c(O)c(cc(O)c4c3C2=O)NC(=O)/C(C)=C\C=C\[C@H](C)[C@H](O)[C@@H](C)[C@@H](O)[C@@H](C)[C@H](OC(C)=O)[C@@H]1C : -3.13

Quick note, inhibition for COc1cc2c(cc1O)C[C@H]1c3c(cc(O)c(OC)c3-2)CCN1C landed at 1.24

According to the records, this compound C/C(=C/C=C/[C@@H](C)C(=O)O)[C@H]1CN[C@H](C(=O)O)[C@H]1CC(=O)O displays inhibition of 2.83

Recorded result, CCOC(=O)C1=C[C@]2(CC)CCCN3CCc4c(n1c1ccccc41)[C@@H]32 , inhibition: 29.1

Recorded inhibition (compound CC1=C[C@]23C(=O)[C@@H](C=C(COC(=O)c4ccccc4)[C@@H](O)[C@]2(O)[C@H]1OC(=O)c1ccccc1)[C@H]1[C@@H](C[C@H]3C)C1(C)C ): 1

The compound identified as C[C@H]1CC[C@@H]2[C@@H](C)[C@H]3[C@H](C[C@H]4[C@@H]5CC[C@H]6C[C@@H](O)CC[C@]6(C)[C@H]5CC[C@]34C)N2C1 registered its inhibition at 41.9

// O=C(O)c1cc(N(Cc2ccccc2O)Cc2cc(O)ccc2O)ccc1O : inhibition value = 17.7
